Every entry's value here was drawn from patent US20060154889A1.

- Test system: XACAGCTGT
- experimentalDetails: Dangling-end thermal denaturation, sequence XACAGCTGT (Table 1)
- Type: physicochemical
- testConditions: Van't Hoff plots
Define the label as rule met when −ΔS is strictly less than 200 eu and as rule not met in all remaining cases.

{"columns": ["compound", "assignedCategory"],
 "data": [
  ["OCC1OC(c2cc(F)c(F)cc2F)CC1O (centres unmarked) [2,4,5-trifluorophenyl]", "rule met"],
  ["OC[C@H]1O[C@@H](c2c(F)cc(F)cc2F)C[C@@H]1O [2,4,6-trifluorophenyl]", "rule met"],
  ["OC[C@H]1O[C@@H](c2cc(F)c(F)c(F)c2F)C[C@@H]1O [2,3,4,5-tetrafluorophenyl]", "rule not met"],
  ["OC[C@H]1OC(c2ccc(F)cc2)C[C@@H]1O (stereo partly drawn) [4-fluorophenyl, 1′-(4-fluorophenyl)-2′-deoxy-D-ribose]", "rule met"],
  ["OC[C@H]1O[C@@H](c2c(F)c(F)c(F)c(F)c2F)C[C@@H]1O [pentafluorophenyl]", "rule met"]
]}
